Would you kindly list Cmax for each of these compounds?
- assay.procedure: Rat pharmacokinetics after PO and SC dosing
- Type: in vivo, female Lewis rats
- experimental.context: rat; fed female Lewis rats, 30 mg/kg SC, plasma; read-out: Rat PK, 30 mpk SC, Cmax
Could you give me the number in µM? Just the number is fine.

Identify the reported Cmax for the following entry. Cc1ccc(-n2nc(N3CCN(C)CC3)cc2NC(=O)c2cnn3ccccc23)nc1 [Compound A, reference compound]
3.3

Input Cc1ccc(-n2nc(N3CCN([C@@H]4CCS(=O)(=O)C4)CC3)cc2NC(=O)c2cnn3cccnc23)nc1 [Compound 8] , output reported Cmax.
1.5

Indicate its recorded Cmax; the compound in question is Cc1ccc(-n2nc(N3CCN(CC(N)=O)CC3)cc2NC(=O)c2cnn3cccnc23)nc1 [Compound 16]
16.1

Supply recorded Cmax for Cc1ccc(-n2nc(N3CCN([C@H]4CCS(=O)(=O)C4)CC3)cc2NC(=O)c2cnn3cccnc23)nc1 [Compound 9] here.
8.1
